Each entry below carries its recorded fraction unbound.
- test summary: Fraction unbound in rat plasma
- Format: ADME, cell-free
Number, no unit, nothing else.

C[C@](O)(c1ccc(C(=O)N(C2CC2)[C@H]2CC[C@H](CC3(C(N)=O)CC3)CC2)cc1)C(F)(F)F :: 0.048

Next, consider the following compound.
IN: Field request: fraction unbound | item: C[C@](O)(c1ccc(C(=O)N(C2CC2)C2CCN(CC3(C(N)=O)CC3)CC2)cc1)C(F)(F)F
OUT: 0.2
